// reported Binding affinity (RU) for each item listed
Target: acetylcholine receptor
Assay: SPR, acetylcholine receptor on CM5 chip, peptide 10 µM
Express your answer in RU, writing the number without its unit.

Example cases with answers are listed next.
*Q* Specify Binding affinity (RU) for KWYTKR [6mer-2-551] and stop.
*A* 141

*Q* Specify Binding affinity (RU) for RGYQRR [6mer-2-571] and stop.
*A* 135

New cases:
*Q* Specify Binding affinity (RU) for KVFRRR [6mer-2-598] and stop.
*A* 146

*Q* Specify Binding affinity (RU) for KGIQKK [6mer-2-596] and stop.
*A* 153

*Q* Specify Binding affinity (RU) for KGFQKK [6mer-2-568] and stop.
*A* 142

*Q* Specify Binding affinity (RU) for KLYCRK [6mer-2-545] and stop.
*A* 125

*Q* Specify Binding affinity (RU) for RQQRKR [6mer-2-562] and stop.
*A* 136

*Q* Specify Binding affinity (RU) for KWVLRK [6mer-2-557] and stop.
*A* 123

*Q* Specify Binding affinity (RU) for KGYQKR [6mer-2-563] and stop.
*A* 131

*Q* Specify Binding affinity (RU) for KRLTRK [6mer-2-584] and stop.
*A* 148

*Q* Specify Binding affinity (RU) for RQYTRR [6mer-2-560] and stop.
*A* 153

*Q* Specify Binding affinity (RU) for RQIYRR [6mer-2-542] and stop.
*A* 148

*Q* Specify Binding affinity (RU) for KVIQKR [6mer-2-544] and stop.
*A* 147

*Q* Specify Binding affinity (RU) for KLRCKK [6mer-2-595] and stop.
*A* 154
